These measurements were taken from patent US20250313625A1.

Below, each entry is listed with its recorded EC50.
# assay_system: T1, human LAG3, full length, stably expressed on cells (human, UniProt P18627 23-525)
# T1 construct: whole, on cells; also called CHOK1-human LAG3
# T1 sequence (looked up): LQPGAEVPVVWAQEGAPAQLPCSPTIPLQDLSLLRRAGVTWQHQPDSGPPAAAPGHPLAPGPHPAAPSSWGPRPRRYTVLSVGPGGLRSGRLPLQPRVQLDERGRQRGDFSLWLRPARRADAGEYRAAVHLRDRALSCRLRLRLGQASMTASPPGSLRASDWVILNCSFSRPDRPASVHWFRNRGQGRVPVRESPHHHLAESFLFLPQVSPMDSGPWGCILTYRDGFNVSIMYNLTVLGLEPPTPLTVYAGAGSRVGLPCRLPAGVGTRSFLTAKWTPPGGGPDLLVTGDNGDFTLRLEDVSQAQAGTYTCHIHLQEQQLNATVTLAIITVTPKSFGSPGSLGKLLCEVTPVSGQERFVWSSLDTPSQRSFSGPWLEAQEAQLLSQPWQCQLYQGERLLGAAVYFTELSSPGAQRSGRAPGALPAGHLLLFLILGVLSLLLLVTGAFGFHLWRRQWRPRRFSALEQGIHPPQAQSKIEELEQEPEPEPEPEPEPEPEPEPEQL
# protocol_notes: FACS on 293F-human LAG3 cells
Hi, when you answer, please include the unit after the number. Thanks!

Reference set, count: 2
{"binder": "Antibody 024 (antibody, V domains shown, mouse hybridoma antibody) VH: EVQLQQSGPELVKPGASVKISCKASGYTFTDYYMNWVKQSHGKRLEWIGDIDPNNGGTSYNQKFKGKATLTVDKSSSSAYMDLRSLTSEDSAVYYCARAGSYYYGSSYVEYFDVWGTGTTVTVSS VL: DIQMTQSPASLSASVGETVTITCRASGNIHNYLAWYQQKQGASPQLLVYNAKTLADGVPSRFSGSGSGTEFSLKINSLQPEDFGNYYCQHFWNTPYTFGGGTKLEIK", "EC50": "2.04 nM"}
{"binder": "Antibody 039 (antibody, V domains shown, mouse hybridoma antibody) VH: EFQLQQSGPELVKPGASVKISCKASGYSFTDYNLNWVRQSNGKSLEWIGLVDPIYGTIRYNQNFKDKATLTVDQSSSTAYMQLNSLTSEDSAVYYCASIMTAVRYFDHWGQGTTLTVSS VL: DVLMTQTPLFLPVSLGDQASISCRSSLNIVHSDGNTYLEWYLQKPGQSPKLLIYKVSNRFSGVPDRFSGSGSGTDFTLKISGVEAEDLGVYYCFQGSHVPPTFGGGTKLEIK", "EC50": "1.38 nM"}

Looking for the measured EC50 of Antibody 033 (antibody, V domains shown, mouse hybridoma antibody) VH: EVQLQQSGAELVRPGASVKLSCTASDFNIKDDYIHWVKQRPEQGLEWIGWIDLENGDTEYASKFQGKATITADTSSNTAYLQLSSLTSEDTAVYYCTTKGSHWGQGTLVTVSA VL: DVVMTQIPLSLPVSLGDQASISCRSSQSLVYSNGNTYLNWYLQKPGQSPKLLIHKVSNRFSGVPDRFSGSGSGTDFTLKISRVEAEDLGVYFCSQSTHVPYTFGGGTKLEIR , can you help? 2.33 nM
